Values from ChEMBL document CHEMBL5303304

# System: U2OS
# measurement_notes: Incucyte cell viability with U2OS; further: unitless GR value; below 1 slowed growth and below 0 cell loss
# Format: toxicity, cell-based
# particulars: human, 12 h, 10 µM, compound concentration 10 uM, replicate number 2
observed_property: Growth Rate

# example entries with known answers
{"columns": ["compound", "Growth Rate"],
 "data": [
  ["Cc1onc(-c2ccc(F)cc2)c1COc1ccc(C(=O)N2CCS(=O)(=O)CC2)cn1", 0.8],
  ["CC[N+](CC)(CC)CCOc1ccc(/C=C/c2ccccc2)cc1.[I-] [STILONIUM IODIDE]", 1],
  ["CCn1c(=O)c2c(C)c(C(=O)N3CCC(O)CC3)sc2n(CCC(F)(F)F)c1=O", 0.97]
]}

Query compound follows.
State Growth Rate (U2OS) of CCC(F)(F)c1cc(N2CCC(S(C)(=O)=O)CC2)nc2sc(C(N)=O)c(N)c12 .
-0.82

---

# Test system: U2OS
# measurement_notes: Incucyte cell viability with U2OS; further: unitless GR value; below 1 slowed growth and below 0 cell loss
# Assay type: toxicity, cell-based
# particulars: human, 18 h, 10 µM, compound concentration 10 uM, replicate number 1
observed_property: Growth Rate
Form field (numeric): enter value without unit.

{"columns": ["compound", "value"],
 "data": [
  ["Cc1ccc(S(=O)(=O)Nc2ccc(-n3nc(C(F)(F)F)cc3C(F)(F)F)cc2)cc1", 0.74],
  ["COc1cc(-c2cc(-c3cccc(O)c3)cnc2N)cc(OC)c1OC", 0.73],
  ["CC(C)(O)CNC(=O)N1C(=O)N(c2cccc(C(F)(F)F)c2)C2=C(C(=O)CC2)[C@H]1c1ccc(C#N)cc1", 0.85],
  ["Cc1cc(-c2ccnc(Nc3cnn(C)c3)n2)ccc1CNC(=O)N1CC(OC(C)C)C1", 0.98],
  ["CC(C)(C)OC(=O)CN(Cc1ccc(Cl)cc1)Cc1ccc([N+](=O)[O-])s1", 0.94]
]}

Name the recorded Growth Rate of the compound listed here: CCNc1ccc(-c2nn(-c3ccccc3C)c3c2C(C)Cc2nc(NC(=O)OC)sc2-3)cn1.O=C(O)C(F)(F)F (centres undefined)
0.27

Name the recorded Growth Rate of the compound listed here: CCN1/C(=C/C(C)=O)Sc2ccc(OC(C)=O)cc21
1

Name the recorded Growth Rate of the compound listed here: CCC(=O)N[C@H]1CC[C@@H](C(=O)N(C)c2ccc(-c3nc4ccccc4o3)cc2)C1
0.98

Name the recorded Growth Rate of the compound listed here: CCn1ccc(Nc2ncc3c(n2)-c2c(nn(C)c2-c2ccc(-c4cnn(C)c4)cc2Cl)CC3)n1
0.27

---

# Test system: U2OS
# measurement_notes: Incucyte cell viability with U2OS; further: unitless GR value; below 1 slowed growth and below 0 cell loss
# Type: toxicity, cell-based
# particulars: human, 24 h, 10 µM, compound concentration 10 uM, replicate number 2
Mark True only when Growth Rate stays strictly below 0.7. Values equal to the cut-off are False.

Recorded results for 4 molecules are shown here.
{"columns": ["molecule", "class"],
 "data": [
  ["CC(C)n1cnc2c(Nc3cccc(Cl)c3)nc(N[C@H]3CCCC[C@@H]3N)nc21", "True"],
  ["C[C@@]1(Cc2ccc(C#N)cc2)C(=O)N(c2cc(Cl)cc(Cl)c2)c2ncc(C(=O)NC3(c4nc(C5CCC5)no4)CC3)n21 [BI 9446]", "False"],
  ["CC(C)(C#Cc1ccc(NC(=O)COc2ccccc2C(=O)c2ccccc2)c(Cl)c1)C(=O)O [BI 2439]", "False"],
  ["COc1cc(F)ccc1-c1cc(Nc2cc(CS(C)(=N)=O)ccn2)ncc1F (stereo not drawn) [ENITOCICLIB]", "True"]
]}

Identify whether the molecule CCc1nc(-c2cccc(C)c2)c(-c2ccnc(NC(=O)c3ccccc3)c2)s1 [TAK-715] records Growth Rate below 0.7.
False

Identify whether the molecule COc1cc(-c2cncc(-c3cnn(C4CCNCC4)c3)c2)cc(OC)c1OC records Growth Rate below 0.7.
False

---

# System: HEK-293T
# measurement_notes: Incucyte cell viability with HEK293T; further: unitless GR value; below 1 slowed growth and below 0 cell loss
# Format: toxicity, cell-based
# particulars: human, 6 h, 10 µM, compound concentration 10 uM, replicate number 2
observed_property: Growth Rate

{"columns": ["compound", "observed_property", "value"],
 "data": [
  ["COc1c(C(=O)/C=C/c2ccccc2)c(O)c(OC)c2occc12", "Growth Rate", -0.38],
  ["Cc1c(CCC(=O)O)cccc1NC(=O)[C@@H](c1ccc(-c2cncc(Cl)c2)c(F)c1)C1CCCC1", "Growth Rate", 0.98],
  ["CC(=O)Nc1nc(CN2CCC[C@H](Cc3cc(C)nc(C)c3)C2)cs1", "Growth Rate", 0.53],
  ["CC(C)c1cc(Br)c(NC(=O)Nc2cccnc2)c(Br)c1", "Growth Rate", 0.84],
  ["CCC(=N\\O)/C(C)=C/c1ccc(F)cc1", "Growth Rate", -0.79],
  ["COc1cc(/C=C(\\C#N)C(=O)Nc2nnc(C(F)(F)F)s2)ccc1OCc1ccc(C(F)(F)F)cc1C(F)(F)F", "Growth Rate", 0.92]
]}

Name the recorded Growth Rate of the compound listed here: CCc1cc2c(cc1-c1cccc(S(=O)(=O)F)c1)C(C)(C)c1[nH]c3cc(C#N)ccc3c1C2=O
-0.05

Name the recorded Growth Rate of the compound listed here: CCNC(=O)c1ccc2c(c1)NC(=O)/C2=C(\Nc1ccc(CN(C)C)cc1)c1ccccc1
0.16

Name the recorded Growth Rate of the compound listed here: O=C1CSC(=O)N1C(CCc1ccncc1)COc1ccc(-c2cccc([N+](=O)[O-])c2)cc1 (centres undefined)
0.02

---

# System: HEK-293T
# measurement_notes: Incucyte cell viability with HEK293T; further: unitless GR value; below 1 slowed growth and below 0 cell loss
# Format: toxicity, cell-based
# particulars: human, 6 h, 10 µM, compound concentration 10 uM, replicate number 2
The following compounds are shown together with reported Growth Rate values.

Name the recorded Growth Rate of the compound listed here: Cc1c(NC(=O)c2cccn(-c3ccc(F)cc3)c2=O)ccc(Oc2ccnc(NC(=O)C3CC3)c2)c1C
0.27

Name the recorded Growth Rate of the compound listed here: CCN(C(=O)CO)[C@H]1CN(/C(=N\C#N)Nc2cccc(OC(F)F)c2)N=C1c1ccc(Cl)c(Cl)c1
0.79

Name the recorded Growth Rate of the compound listed here: CC(C1CC2CCC1C2)n1c(S)nnc1-c1ccco1 (stereo not drawn)
0.46

Name the recorded Growth Rate of the compound listed here: CCN(CC)CCO[C@H]1CC[C@@]2(C)C(=CC[C@@H]3[C@@H]2CC[C@]2(C)C(=O)CC[C@@H]32)C1.Cl
0.24

Name the recorded Growth Rate of the compound listed here: CC(C)(O)c1cn(-c2ccc(-c3cccc(S(C)(=O)=O)c3)cc2)c(C(C)(C)c2ccccc2Cl)n1 [BMS-779788]
0.58

Name the recorded Growth Rate of the compound listed here: CS(=O)(=O)NC(=O)CCC/C=C\C[C@H]1C(=O)C[C@@H](O)[C@@H]1/C=C/[C@@H](O)COc1ccccc1 [SULPROSTONE]
0.91

Name the recorded Growth Rate of the compound listed here: COc1ccc(F)c(F)c1C(=O)c1cnc(NC2CCN(S(C)(=O)=O)CC2)nc1N [RG-547]
-0.37

Name the recorded Growth Rate of the compound listed here: Nc1ncc2c(n1)-c1c([nH]c3ccc(C4=CCOCC4)cc13)CCC2
-0.1

---

# Tested on: U2OS
# measurement_notes: Incucyte cell viability with U2OS; further: unitless GR value; below 1 slowed growth and below 0 cell loss
# Type: toxicity, cell-based
# particulars: human, 12 h, 10 µM, compound concentration 10 uM, replicate number 2
The following compounds are shown together with reported Growth Rate values.

Name the recorded Growth Rate of the compound listed here: CN(C)c1ccc(-c2cc3ncccc3c(OCCCCO)n2)cc1.O=C(O)C(F)(F)F
0.55

---

# System: U2OS
# measurement_notes: Incucyte cell viability with U2OS; further: unitless GR value; below 1 slowed growth and below 0 cell loss
# Format: toxicity, cell-based
# particulars: human, 6 h, 10 µM, compound concentration 10 uM, replicate number 2
Quick rule for you: Growth Rate at 0.9 or higher means rule met, lower means rule not met.

Recorded results for 5 molecules are shown here.
{"columns": ["molecule", "class"],
 "data": [
  ["CC(=O)N1CCN(c2ccc(OCC3COC(Cn4ccnc4)(c4ccc(Cl)cc4Cl)O3)cc2)CC1 (stereo not drawn)", "rule met"],
  ["COc1ccccc1-c1cc(Nc2cccc(CS(N)(=O)=O)c2)ncn1", "rule not met"],
  ["CCNC(=O)c1ccc2c(c1)NC(=O)/C2=C(\\Nc1ccc(CN(C)C)cc1)c1ccccc1", "rule met"],
  ["Cn1nc(C(=O)NCc2ccc(C(=O)O)cc2)cc1-c1ccc2[nH]ccc2c1", "rule met"],
  ["CCO[C@H](COc1ccc(C(F)(F)F)cc1)CSc1ccc(OCC(=O)[O-])c(C)c1.[Na+]", "rule not met"]
]}

Reported Growth Rate at or above 0.9? CN(c1ccc(C(F)(F)F)cc1)S(=O)(=O)c1ccc(C(=O)Nc2nc(-c3ccccn3)cs2)cc1
rule not met

Reported Growth Rate at or above 0.9? COc1nc2ccc([C@@](O)(c3ccccc3)C3CCN(C(C)=O)CC3)cc2c(Cl)c1Cc1ccc(-n2cccn2)cc1
rule not met

Reported Growth Rate at or above 0.9? COc1cc2nc(C)nc(N[C@H](C)c3cc(N)cc(C(F)(F)F)c3)c2cc1O[C@H]1CCOC1
rule met
